Origin of the recorded values: patent US20160151337A1

- Measurement Target: CRAC channel (Homo sapiens)
- Construct: endogenous in cells; host or cells: HEK293 (ECACC), untransfected
- Sequence (Q96D31 whole entry): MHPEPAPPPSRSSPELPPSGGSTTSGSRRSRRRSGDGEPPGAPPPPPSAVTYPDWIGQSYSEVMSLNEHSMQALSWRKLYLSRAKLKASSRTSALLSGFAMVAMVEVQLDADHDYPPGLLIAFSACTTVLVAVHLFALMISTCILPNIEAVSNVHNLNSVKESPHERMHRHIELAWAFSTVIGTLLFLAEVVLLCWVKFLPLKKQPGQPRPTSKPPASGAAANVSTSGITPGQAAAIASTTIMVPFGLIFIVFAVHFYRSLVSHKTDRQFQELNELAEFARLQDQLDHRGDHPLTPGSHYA
- Protocol: HEK Calcium Influx Assay (FLIPR), inhibition of store-operated Ca2+ entry after thapsigargin store depletion
- Assay type: cell-based
- Condition: 10 μM compound, HEK293 cells, read-out: % inhib. [@ 10 μM] FLIPR
Listing of recorded inhibition at 10 µM by entry.
Value Kind: inhibition at 10 µM

Compound: Cc1sc(-c2ccccn2)nc1N1CCc2[nH]c(-c3c(F)cccc3F)cc2C1 [Example 6]
Result: 50 to 70%
//
Compound: Cc1cc(S(=O)(=O)N(C)C)ccc1N1CCc2[nH]c(-c3c(F)cccc3F)cc2C1 [Example 14]
Result: < 50%
//
Compound: Cc1nc(-c2cccnc2)sc1N1CCc2[nH]c(-c3c(F)cccc3F)cc2C1 [Example 18]
Result: > 70%
//
Compound: Cc1cc(S(C)(=O)=O)ncc1N1CCc2[nH]c(-c3c(F)cccc3F)cc2C1 [Example 16]
Result: > 70%
//
Compound: Cc1cc(S(C)(=O)=O)ncc1N1CCc2[nH]c(C3CCCCC3)cc2C1 [Example 72]
Result: > 70%
//
Compound: Cc1cc(S(=O)(=O)C(F)(F)F)ccc1N1CCc2[nH]c(-c3c(F)cccc3F)cc2C1 [Example 86]
Result: < 50%
//
Compound: Cc1cc(S(=O)(=O)N2CCCCC2)ccc1N1CCc2[nH]c(-c3c(F)cccc3F)cc2C1 [Example 119]
Result: < 50%
//
Compound: CC(=O)c1ccc(N2CCc3[nH]c(-c4c(F)cccc4F)cc3C2)c(C)c1 [Example 82]
Result: > 70%

---

Listing of recorded inhibition at 10 µM by entry.
- Measurement Target: CRAC channel (Homo sapiens)
- Construct: endogenous in cells; host or cells: HEK293 (ECACC), untransfected
- Protocol: HEK Calcium Influx Assay (FLIPR), inhibition of store-operated Ca2+ entry after thapsigargin store depletion
- Assay type: cell-based
- Condition: 10 μM compound, HEK293 cells, read-out: % inhib. [@ 10 μM] FLIPR

Molecule: O=C1c2cc(-c3c(F)cccc3F)[nH]c2CCN1c1c(F)cccc1F
Measurement Target: CRAC channel (Homo sapiens)
inhibition at 10 µM: 50 to 70%
//
Molecule: Cc1ccncc1N1CCc2[nH]c(-c3c(F)cccc3F)cc2C1
Measurement Target: CRAC channel (Homo sapiens)
inhibition at 10 µM: > 70%
//
Molecule: Cc1cc(C(F)(F)F)ncc1N1CCc2[nH]c(-c3cncc(F)c3C)cc2C1
Measurement Target: CRAC channel (Homo sapiens)
inhibition at 10 µM: > 70%
//
Molecule: CNC(=O)c1ccc(N2CCc3[nH]c(-c4c(F)cccc4F)cc3C2)c(C)c1
Measurement Target: CRAC channel (Homo sapiens)
inhibition at 10 µM: > 70%
//
Molecule: Cc1cc(C#N)c(F)cc1N1CCc2[nH]c(-c3c(F)cccc3F)cc2C1
Measurement Target: CRAC channel (Homo sapiens)
inhibition at 10 µM: < 50%
//
Molecule: Cc1sc(-c2ncco2)nc1N1CCc2[nH]c(-c3c(F)cccc3Cl)cc2C1=O
Measurement Target: CRAC channel (Homo sapiens)
inhibition at 10 µM: > 70%
//
Molecule: Fc1cccc(F)c1-c1cc2c([nH]1)CCN(c1cnc(C(F)(F)F)cc1C1CC1)C2
Measurement Target: CRAC channel (Homo sapiens)
inhibition at 10 µM: < 50%
//
Molecule: COc1ncccc1-c1cc2c([nH]1)CCN(c1cnc(S(C)(=O)=O)cc1C)C2
Measurement Target: CRAC channel (Homo sapiens)
inhibition at 10 µM: > 70%
//
Molecule: CCn1nc(C(F)(F)F)cc1N1CCc2[nH]c(-c3c(F)cccc3F)cc2C1
Measurement Target: CRAC channel (Homo sapiens)
inhibition at 10 µM: > 70%
//
Molecule: Cc1ccc(C#N)cc1N1CCc2[nH]c(-c3c(F)cccc3F)cc2C1
Measurement Target: CRAC channel (Homo sapiens)
inhibition at 10 µM: 50 to 70%
//
Molecule: CCOc1cc(C(F)(F)F)ncc1N1CCc2[nH]c(-c3c(F)cccc3F)cc2C1
Measurement Target: CRAC channel (Homo sapiens)
inhibition at 10 µM: > 70%
//
Molecule: Cc1cc(OC(F)(F)F)ncc1N1CCc2[nH]c(-c3c(F)cccc3F)cc2C1
Measurement Target: CRAC channel (Homo sapiens)
inhibition at 10 µM: < 50%
//
Molecule: COc1cc(S(C)(=O)=O)ccc1N1CCc2[nH]c(-c3c(F)cccc3F)cc2C1
Measurement Target: CRAC channel (Homo sapiens)
inhibition at 10 µM: > 70%
//
Molecule: Cc1cc(S(=O)(=O)NCC(F)(F)F)ccc1N1CCc2[nH]c(-c3c(F)cccc3F)cc2C1
Measurement Target: CRAC channel (Homo sapiens)
inhibition at 10 µM: < 50%
//
Molecule: Cc1cc(S(=O)(=O)N(C)C2CC2)ccc1N1CCc2[nH]c(-c3c(F)cccc3F)cc2C1
Measurement Target: CRAC channel (Homo sapiens)
inhibition at 10 µM: < 50%
//
Molecule: Cc1cc(Cl)c(F)cc1N1CCc2[nH]c(-c3c(F)cccc3F)cc2C1
Measurement Target: CRAC channel (Homo sapiens)
inhibition at 10 µM: < 50%
//
Molecule: Cc1cc([S+](C)[O-])ccc1N1CCc2[nH]c(-c3c(F)cccc3F)cc2C1 (centres unmarked)
Measurement Target: CRAC channel (Homo sapiens)
inhibition at 10 µM: > 70%
